Molecular target: T1, MDMX (1–134) (UniProt O15151 1-134)
T1 construct: MDMX, residues 1-134; the methods may stand in the ESI; also called Mouse double minute X homolog
T1 sequence (looked up): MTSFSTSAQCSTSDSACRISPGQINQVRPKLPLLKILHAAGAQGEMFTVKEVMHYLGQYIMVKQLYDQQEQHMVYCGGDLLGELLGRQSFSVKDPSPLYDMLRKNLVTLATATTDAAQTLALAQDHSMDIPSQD
Experiment: fluorescence polarisation; direct binding; 10 nM FITC-labelled peptide incubated with varying concentrations of protein (10 μM to 9 pM), FP read after 3 h; n = 3
Details: both partners purified
Starred links: 1 amine or outer side, 2 acyl side, 3 side chain; linkers in the order of their positions; H or OH if unused. Positions of bridges follow the written chain, without caps; N, C: chain ends. Non-standard residues stand in square brackets, D forms with d. *: point of attachment. FITC = O=C1OC2(c3ccc(O)cc3Oc3cc(O)ccc32)c2ccc(NC(=S)*)cc21; S7 = C[C@@](CCCCCC=[*:3])(N[*:1])C(=O)[*:2]; R8 = C=CCCCCCC[C@@](C)(N)C(=O)O; Cba = N[C@@H](CC1CCC1)C(=O)O; S5 = C=CCCC[C@](C)(N)C(=O)O; Ahx = NCCCCCC(=O)O
assayEndpoint: Kd (nM)

{FITC-Ahx}-LTF[R8]EYWAQ[Cba][S5]SAA-NH2 (staple 4-11; also: trans alkene isomer) [trans-3FITC (ATSP-7041)] : 7.86

I. {FITC-Ahx}-LTF[R8]EYWAQ[Cba][S5]SAA-NH2 (staple 4-11; also: cis alkene isomer) [cis-2FITC (ATSP-7041)]
II. {FITC-Ahx}-LTA[S7]EYWAQ[Cba][S7]SAA-NH2 (staple 4-11) [5FITC]
III. {FITC-Ahx}-LTF[S7]EYWAQ[Cba][S7]SAA-NH2 (bridge 4-11; not fully specified (bridges)) [4FITC]
Reorder the items by Kd, least to greatest. I'd appreciate it if you listed the labels in the requested order. I, III, II
(I: 8.42 nM, III: 203 nM, II: 1120 nM)
